# System: OVCAR-3
# METHOD DESCRIPTION: Growth inhibition of human OVCAR-3 cells after 48 hrs by SRB staining method
# Format: functional
# CONDITION DESCRIPTION: OVCAR-3, 48 h
Reported GI50 by item:
Quick note: give the figure in µM, leave out the unit.

Use these answered entries as a reference point.
Lookup: Using the record for COc1cc(Nc2nc3cc(N)cc(N)c3nc2-c2ccccc2)cc(OC)c1 , report its GI50.
Found: 3.89

Lookup: Quick check: GI50 of COc1cc(Nc2nc3cc(N)cc(N)c3nc2-c2ccccc2)cc(OC)c1OC ?
Found: 14.1

Lookup: Query: GI50; subject: COc1ccc(Nc2nc3cc(N)cc(N)c3nc2-c2ccccc2)cc1OC
Found: 30.2

Lookup: Look up GI50 for this compound: CCOC(=O)CCC(NC(=O)c1ccc(Nc2nc3cc(N)cc(N)c3nc2-c2ccccc2)cc1)C(=O)OCC (configuration not stated)
Found: 8.51

Lookup: Find the recorded GI50 belonging to Nc1cc(N)c2nc(-c3ccccc3)c(Nc3ccc(Cl)c(Cl)c3)nc2c1 and report it.
Found: 2.95

Continuing:
Lookup: Query (compound): Nc1cc(N)c2nc(-c3ccccc3)c(Nc3ccc(F)cc3)nc2c1 ; field requested: GI50
Found: 4.68

Lookup: Fill in: GI50 of COc1ccc(Nc2nc3cc(N)cc(N)c3nc2-c2ccccc2)cc1 is ___
Found: 17.4

---

Examples of compounds with documented TGI follow.
# Test system: SF-268
# METHOD DESCRIPTION: Growth inhibition of human SF268 cells after 48 hrs by SRB staining method
# Assay type: functional
# CONDITION DESCRIPTION: SF-268, 48 h, read-out: pTGI (converted)
Quick reminder: number only, in µM, skip the unit.

Lookup: Endpoint output: TGI of COc1cc(Nc2nc3cc(N)cc(N)c3nc2-c2ccccc2)cc(OC)c1OC . Value?
Found: 60.3

Lookup: Fill in the blank: the reported TGI of Nc1cc(N)c2nc(-c3ccccc3)c(Nc3ccc(F)cc3)nc2c1 is ____.
Found: 40.7

Lookup: # input compound: COc1cc(Nc2nc3cc(N)cc(N)c3nc2-c2ccccc2)cc(OC)c1 ; wanted: its TGI
Found: 56.2

Lookup: For COc1ccc(Nc2nc3cc(N)cc(N)c3nc2-c2ccccc2)cc1 , what is its reported TGI?
Found: 30.9

Lookup: Look up TGI for this compound: Nc1cc(N)c2nc(-c3ccccc3)c(Nc3ccc(Cl)c(Cl)c3)nc2c1
Found: 28.8

Next:
Lookup: Can you share its TGI? I mean this compound: COc1ccc(Nc2nc3cc(N)cc(N)c3nc2-c2ccccc2)cc1OC
Found: 46.8

---

# Test system: OVCAR-4
# METHOD DESCRIPTION: Growth inhibition of human OVCAR4 cells after 48 hrs by SRB staining method
# Type: functional
# CONDITION DESCRIPTION: OVCAR-4, 48 h
# reported GI50; entries follow
Quick reminder: number only, in µM, skip the unit.

The following compounds have reported results that may help.
Lookup: So what GI50 did COc1cc(Nc2nc3cc(N)cc(N)c3nc2-c2ccccc2)cc(OC)c1OC get with OVCAR-4?
Found: 0.0316

Lookup: What value of GI50 on OVCAR-4 does CCOC(=O)CCC(NC(=O)c1ccc(Nc2nc3cc(N)cc(N)c3nc2-c2ccccc2)cc1)C(=O)OCC (configuration not stated) have?
Found: 26.9

Lookup: Record COc1ccc(Nc2nc3cc(N)cc(N)c3nc2-c2ccccc2)cc1OC : what is its GI50 with OVCAR-4?
Found: 18.6

***
Lookup: Test system OVCAR-4; read-out GI50; what value for Nc1cc(N)c2nc(-c3ccccc3)c(Nc3ccc(F)cc3)nc2c1 ?
Found: 13.5

Lookup: GI50 / OVCAR-4 / COc1ccc(Nc2nc3cc(N)cc(N)c3nc2-c2ccccc2)cc1
Found: 10.5

Lookup: Field: GI50 (OVCAR-4). Entry: COc1cc(Nc2nc3cc(N)cc(N)c3nc2-c2ccccc2)cc(OC)c1
Found: 17.8

Lookup: Missing value: GI50, OVCAR-4, entry Nc1cc(N)c2nc(-c3ccccc3)c(Nc3ccc(Cl)c(Cl)c3)nc2c1 . Fill in?
Found: 11.2

---

As shown below, each of these molecules has a reported GI50 value.
# Test system: SK-MEL-5
# METHOD DESCRIPTION: Growth inhibition of human SK-MEL-5 cells after 48 hrs by SRB staining method
# Type: functional
# CONDITION DESCRIPTION: SK-MEL-5, 48 h
# output: bare number, implied unit µM

# example entries with known answers
Lookup: Form field: reported GI50 of COc1cc(Nc2nc3cc(N)cc(N)c3nc2-c2ccccc2)cc(OC)c1OC
Found: 12.9

Lookup: Give the measured GI50 of CCOC(=O)CCC(NC(=O)c1ccc(Nc2nc3cc(N)cc(N)c3nc2-c2ccccc2)cc1)C(=O)OCC (configuration not stated) .
Found: 6.61

Lookup: Which measured GI50 value corresponds to Nc1cc(N)c2nc(-c3ccccc3)c(Nc3ccc(F)cc3)nc2c1 ?
Found: 14.5

Lookup: Fill blank: measured GI50 of the molecule Nc1cc(N)c2nc(-c3ccccc3)c(Nc3ccc(Cl)c(Cl)c3)nc2c1 is ____.
Found: 11

Lookup: Could you share which GI50 value was measured for COc1cc(Nc2nc3cc(N)cc(N)c3nc2-c2ccccc2)cc(OC)c1 ?
Found: 10.5

Next:
Lookup: For the molecule COc1ccc(Nc2nc3cc(N)cc(N)c3nc2-c2ccccc2)cc1OC , what GI50 is on record?
Found: 12.3

Lookup: Looking for the measured GI50 of COc1ccc(Nc2nc3cc(N)cc(N)c3nc2-c2ccccc2)cc1 , can you help?
Found: 15.1

---

# System: HCT-15
# METHOD DESCRIPTION: Growth inhibition of human HCT15 cells after 48 hrs by SRB staining method
# Assay type: functional
# CONDITION DESCRIPTION: HCT-15, 48 h
MEASURED QUANTITY: GI50 (µM)
The figure you give is taken to be in µM; do not add the unit.

Lookup: I have this compound here, COc1cc(Nc2nc3cc(N)cc(N)c3nc2-c2ccccc2)cc(OC)c1 , and I need its recorded GI50.
Found: 20

Lookup: Any idea what its GI50 is? The compound is COc1ccc(Nc2nc3cc(N)cc(N)c3nc2-c2ccccc2)cc1OC
Found: 28.8

Lookup: Please report the recorded GI50 for Nc1cc(N)c2nc(-c3ccccc3)c(Nc3ccc(F)cc3)nc2c1 .
Found: 12.6

Lookup: Request the reported GI50 associated with COc1cc(Nc2nc3cc(N)cc(N)c3nc2-c2ccccc2)cc(OC)c1OC
Found: 15.1

Lookup: Name the recorded GI50 for COc1ccc(Nc2nc3cc(N)cc(N)c3nc2-c2ccccc2)cc1 .
Found: 15.1

Lookup: Record request: GI50 value, item CCOC(=O)CCC(NC(=O)c1ccc(Nc2nc3cc(N)cc(N)c3nc2-c2ccccc2)cc1)C(=O)OCC (configuration not stated)
Found: 23.4

Lookup: Look up GI50: Nc1cc(N)c2nc(-c3ccccc3)c(Nc3ccc(Cl)c(Cl)c3)nc2c1
Found: 21.4

---

# Test system: MDA-MB-231
# METHOD DESCRIPTION: Growth inhibition of human MDA-MB-231 cells after 48 hrs by SRB staining method
# Format: functional
# CONDITION DESCRIPTION: MDA-MB-231, 48 h, read-out: pTGI (converted)
Quick rule for you: TGI at 30 µM or higher means 1 (yes), lower means 0 (no).

Worked examples, 3 compounds total:
Lookup: For this compound, is measured TGI 30 µM or higher? COc1cc(Nc2nc3cc(N)cc(N)c3nc2-c2ccccc2)cc(OC)c1
Found: 1 (yes)

Lookup: Check this compound for TGI at or above 30 µM: COc1ccc(Nc2nc3cc(N)cc(N)c3nc2-c2ccccc2)cc1OC
Found: 0 (no)

Lookup: Hi team, for Nc1cc(N)c2nc(-c3ccccc3)c(Nc3ccc(Cl)c(Cl)c3)nc2c1 , is the recorded TGI at or above 30 µM?
Found: 0 (no)

Here is another compound to look at.
Lookup: Could you tell me if the measured TGI of COc1ccc(Nc2nc3cc(N)cc(N)c3nc2-c2ccccc2)cc1 reaches 30 µM or more?
Found: 0 (no)
